target.entity: T1, TAP complex of MJS TAP1-GFP cells (TAP1-GFP with TAP2) ( | human (endogenous in MJS), UniProt Q03518;Q03519)
T1 construct: also called GFP-tagged TAP
T1 sequence 1: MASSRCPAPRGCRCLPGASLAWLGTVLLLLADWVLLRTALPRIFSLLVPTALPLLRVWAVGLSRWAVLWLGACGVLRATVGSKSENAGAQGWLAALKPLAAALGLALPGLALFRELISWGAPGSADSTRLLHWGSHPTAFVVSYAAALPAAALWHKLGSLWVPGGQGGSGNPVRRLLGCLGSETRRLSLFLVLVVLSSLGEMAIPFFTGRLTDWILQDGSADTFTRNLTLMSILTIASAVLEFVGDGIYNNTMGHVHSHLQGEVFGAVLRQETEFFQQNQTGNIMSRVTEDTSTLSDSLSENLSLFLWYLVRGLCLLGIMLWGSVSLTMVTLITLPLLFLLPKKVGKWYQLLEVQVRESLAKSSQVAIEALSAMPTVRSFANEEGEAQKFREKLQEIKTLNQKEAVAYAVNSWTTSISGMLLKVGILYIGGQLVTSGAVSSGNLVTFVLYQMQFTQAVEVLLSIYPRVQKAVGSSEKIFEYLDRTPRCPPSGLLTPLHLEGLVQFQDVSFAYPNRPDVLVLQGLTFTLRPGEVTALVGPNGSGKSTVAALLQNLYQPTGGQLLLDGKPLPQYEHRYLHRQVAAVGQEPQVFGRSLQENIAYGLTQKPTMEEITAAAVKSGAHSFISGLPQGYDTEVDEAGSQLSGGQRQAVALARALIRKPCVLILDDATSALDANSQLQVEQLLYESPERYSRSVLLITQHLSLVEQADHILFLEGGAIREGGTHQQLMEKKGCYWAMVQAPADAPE
T1 sequence 2: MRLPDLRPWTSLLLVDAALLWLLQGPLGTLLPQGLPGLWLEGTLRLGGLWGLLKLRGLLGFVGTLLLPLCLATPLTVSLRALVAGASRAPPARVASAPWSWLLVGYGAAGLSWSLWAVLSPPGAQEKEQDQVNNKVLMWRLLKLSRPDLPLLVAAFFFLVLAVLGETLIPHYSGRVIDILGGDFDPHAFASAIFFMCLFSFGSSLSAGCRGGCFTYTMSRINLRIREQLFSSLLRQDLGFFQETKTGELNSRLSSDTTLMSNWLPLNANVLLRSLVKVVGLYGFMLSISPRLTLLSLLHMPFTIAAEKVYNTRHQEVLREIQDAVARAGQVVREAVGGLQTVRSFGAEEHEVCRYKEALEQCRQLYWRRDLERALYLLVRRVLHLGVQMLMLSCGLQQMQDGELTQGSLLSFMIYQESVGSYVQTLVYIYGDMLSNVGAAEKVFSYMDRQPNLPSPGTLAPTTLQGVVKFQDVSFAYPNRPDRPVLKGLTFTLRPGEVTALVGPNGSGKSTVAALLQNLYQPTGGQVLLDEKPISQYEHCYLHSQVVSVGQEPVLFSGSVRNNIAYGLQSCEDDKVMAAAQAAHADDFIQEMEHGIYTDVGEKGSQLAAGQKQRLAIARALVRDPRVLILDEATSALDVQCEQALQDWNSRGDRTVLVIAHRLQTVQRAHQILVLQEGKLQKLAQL
protocol.notes: radioligand binding; microsomes of control MJS TAP1-GFP cells incubated on ice with increasing concentrations of RR[125I]YQKSTEL in AP buffer (5 mM MgCl2 in PBS, pH 7.0); corrected for the signal with 200-fold excess of ICP47; triplicate
test.settings: one partner purified
Where no end group is shown, it is not given here. The star is where a group is joined. 125I = [125I]*
test.readout: pKd
# pKd is unitless: minus log10 of the molar concentration; print number only

Query RRY(125I)QKSTEL (also called ^125I-labeled reporter peptide; radiolabeled peptide) [radiolabeled reporter peptide RR[125I]YQKSTEL] yields pKd of 6.56
